Target: T1, Lsm2-8 heteroheptamer WT (Saccharomyces cerevisiae, UniProt P38203;P57743;P40070;P40089;Q06406;P53905;P47093 …)
T1 sequence 1: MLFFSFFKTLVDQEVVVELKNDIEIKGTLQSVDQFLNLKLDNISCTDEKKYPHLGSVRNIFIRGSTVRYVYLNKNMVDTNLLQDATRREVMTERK
T1 sequence 2: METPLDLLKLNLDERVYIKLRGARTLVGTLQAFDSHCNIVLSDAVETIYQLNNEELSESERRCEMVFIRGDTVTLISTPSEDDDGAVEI
T1 sequence 3: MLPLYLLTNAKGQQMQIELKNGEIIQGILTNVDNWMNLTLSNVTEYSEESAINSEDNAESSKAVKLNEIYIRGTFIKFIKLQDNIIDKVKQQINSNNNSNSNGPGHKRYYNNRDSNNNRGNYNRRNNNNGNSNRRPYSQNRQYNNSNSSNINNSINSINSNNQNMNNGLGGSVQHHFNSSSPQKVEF
T1 sequence 4: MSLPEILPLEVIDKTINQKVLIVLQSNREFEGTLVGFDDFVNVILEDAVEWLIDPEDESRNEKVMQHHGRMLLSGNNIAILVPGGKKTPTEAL
T1 sequence 5: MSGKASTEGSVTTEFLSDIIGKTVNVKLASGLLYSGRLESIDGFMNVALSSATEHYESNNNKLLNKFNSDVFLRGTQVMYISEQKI
T1 sequence 6: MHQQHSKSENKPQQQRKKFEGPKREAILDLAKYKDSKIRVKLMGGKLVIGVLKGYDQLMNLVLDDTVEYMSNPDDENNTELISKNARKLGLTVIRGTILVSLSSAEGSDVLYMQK
T1 sequence 7: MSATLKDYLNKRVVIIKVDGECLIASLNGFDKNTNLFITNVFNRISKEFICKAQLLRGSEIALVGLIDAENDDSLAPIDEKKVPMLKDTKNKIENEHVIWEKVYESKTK
Assay: fluorescence polarization; Hill 1.26; FP: 2x RNA stock 2 nM mixed 1:1 with protein, 100 mM NaCl, 20 mM Bis-Tris pH 7.0, 10 mM HCl, 1 mM TCEP, 5% glycerol, yeast tRNA, BSA. EMSA: 100 mM KCl, 20% sucrose, 20 mM Hepes pH 7, 1 mM EDTA, 1 mM TCEP, 0.01% Triton X-100 (RNA buffer), yeast tRNA, heparin, BSA, 30 min room temperature, 6% native PAGE at 4 C. CoSMoS buffer not in material.
Conditions: protein: recombinant; tags: His-tag removed with TEV; copies: 1;1;1;1;1;1;1; label: fluorophore
observable: Kd

Exercise: Recorded Kd of AGAGAUUUAUUUCGUUUU (ssRNA, 3' cis-diol (2',3'-OH)) [U6 95-112-OH] , please.
Solution: 84.6 nM
